// provenance: patent US20210253550A1

Experiment Description: Solubility of Compound 1.HCl measured gravimetrically in solvents/solvent mixtures
Format: physicochemical
Assay Context: thermodynamic from solid; Water, 45° C., slurried 48 h, gravimetric

- Compound: "C[C@@H](NC(=O)N1C(=O)[C@H](Cc2ccnc(N)c2)[C@H]1C(=O)O)C1CCCCC1.Cl [Compound 1.HCl]"
  solubility at 48 h: "> 100 mg/mL"

###

Experiment Description: Solubility of Compound 1.HCl measured gravimetrically in solvents/solvent mixtures
Format: physicochemical
Assay Context: aqueous with cosolvent or surfactant or cyclodextrin, thermodynamic from solid; MeOH:H2O (1:1), 15° C., slurried 48 h, gravimetric
Method: Solubility of Compound 1.HCl was measured gravimetrically in 12 different solvents and solvent mixtures at 15 and 45° C. About 90 mg of the compound was dispensed in 1 mL of the solvent/solvent mixture and slurried for 48 h. The vials were centrifuged. The supernatant was collected and left for slow evaporation under vacuum at 45° C. The solids obtained after evaporation were used to determine the solubility of Compound 1.HCl and analyzed by XRPD for any new form. […]

- Molecule: "C[C@@H](NC(=O)N1C(=O)[C@H](Cc2ccnc(N)c2)[C@H]1C(=O)O)C1CCCCC1.Cl [Compound 1.HCl]"
  solubility at 48 h: "> 100 mg/mL"

###

Experiment Description: Solubility of Compound 1.HCl measured gravimetrically in solvents/solvent mixtures
Type: physicochemical
Assay Context: organic solvent or mixture, thermodynamic from solid; EtOH:H2O (95:5), 45° C., slurried 48 h, gravimetric
Test Readout: solubility at 48 h

- Compound: "C[C@@H](NC(=O)N1C(=O)[C@H](Cc2ccnc(N)c2)[C@H]1C(=O)O)C1CCCCC1.Cl [Compound 1.HCl]"
  Result: "> 100 mg/mL"

###

Experiment Description: Solubility of Compound 1.HCl measured gravimetrically in solvents/solvent mixtures
Assay type: physicochemical
Assay Context: organic solvent or mixture, thermodynamic from solid; EtOH:H2O (95:5), 15° C., slurried 48 h, gravimetric
Experimental: Solubility of Compound 1.HCl was measured gravimetrically in 12 different solvents and solvent mixtures at 15 and 45° C. About 90 mg of the compound was dispensed in 1 mL of the solvent/solvent mixture and slurried for 48 h. The vials were centrifuged. The supernatant was collected and left for slow evaporation under vacuum at 45° C. The solids obtained after evaporation were used to determine the solubility of Compound 1.HCl and analyzed by XRPD for any new form. […]

- Molecule: "C[C@@H](NC(=O)N1C(=O)[C@H](Cc2ccnc(N)c2)[C@H]1C(=O)O)C1CCCCC1.Cl [Compound 1.HCl]"
  solubility at 48 h: "> 100 mg/mL"

###

Experiment Description: Solubility of Compound 1.HCl measured gravimetrically in solvents/solvent mixtures
Format: physicochemical
Assay Context: organic solvent or mixture, thermodynamic from solid; IPA:H2O (9:1), 45° C., slurried 48 h, gravimetric

- Compound: "C[C@@H](NC(=O)N1C(=O)[C@H](Cc2ccnc(N)c2)[C@H]1C(=O)O)C1CCCCC1.Cl [Compound 1.HCl]"
  solubility at 48 h: "> 100 mg/mL"

###

Experiment Description: Solubility of Compound 1.HCl measured gravimetrically in solvents/solvent mixtures
Assay type: physicochemical
Assay Context: organic solvent or mixture, thermodynamic from solid; IPA, 15° C., slurried 48 h, gravimetric

- Compound: "C[C@@H](NC(=O)N1C(=O)[C@H](Cc2ccnc(N)c2)[C@H]1C(=O)O)C1CCCCC1.Cl [Compound 1.HCl]"
  solubility at 48 h: "17 mg/mL"
